All figures here come from ChEMBL document CHEMBL1127588.

Measured on: Adrenergic receptor alpha-1 (Rattus norvegicus, UniProt P15823+P23944+P43140)
Assay: Tested for its binding affinity against alpha-1 receptor in rat brain membrane
Format: cell membranes
Property: Ki (µM)
Express it in µM; write the number only.

Req: Find the recorded Ki belonging to Cl.OC(c1c[nH]cn1)c1cccc2ccccc12 (centres undefined) and report it.
Resp: 9.255

Req: Endpoint output: Ki of "O=C(O)C(=O)O.O=C(c1c[nH]cn1)c1cccc2ccccc12" . Value?
Resp: 15.902

Req: Which value of Ki has been reported for Cc1cccc(C(C)c2c[nH]cn2)c1C (centres undefined) in the records?
Resp: 1.102

Req: Reported Ki for CC(c1c[nH]cn1)c1cccc2ccccc12 (stereo in doubt; S-(-)-2) : what is it?
Resp: 0.536

Req: So what does the record say about Ki for CC(c1c[nH]cn1)c1cccc2ccccc12 (stereo in doubt; 2) ?
Resp: 0.31

---
Req: Fill in the blank: the reported Ki of CC(c1c[nH]cn1)c1cccc2ccccc12 (stereo in doubt; S-(+)-2) is ____.
Resp: 0.461

Req: Param item = "Cl.c1ccc2c(Cc3c[nH]cn3)cccc2c1" ; retrieve measured Ki.
Resp: 0.188
